CONDITION: TIDE 2X 0.78 g/l, 6 gpg, pH 8.2, 30 min at 20°C, A405; variant vs wild-type thermolysin at same protein concentration
Reported PI (performance index), stain removal values for a set of molecules
VALUE_KIND: PI (performance index), stain removal

MOLECULE	OBSERVED_VALUE
I156R: single-substitution thermolysin variant (SEQ ID NO:3 numbering) (protein, listed as Geobacillus caldoproteolyticus) ITGTSTVGVGRGVLGDQKNINTTYSTYYYLQDNTRGNGIFTYDAKYRTTLPGSLWADADNQFFASYDAPAVDAHYYAGVTYDYYKNVHNRLSYDGNNAAIRSSVHYSQGYNNAFWNGSQMVYGDGDGQTFIPLSGGIDVVAHELTHAVTDYTAGLRYQNESGAINEAISDIFGTLVEFYANKNPDWEIGEDVYTPGISGDSLRSMSDPAKYGDPDHYSKRYTGTQDNGGVHINSGIINKAAYLISQGGTHYGVSVVGIGRDKLGKIFYRALTQYLTPTSNFSQLRAAAVQSATDLYGSTSQEVASVKQAFDAVGVK	1.22
I156T: single-substitution thermolysin variant (SEQ ID NO:3 numbering) (protein, listed as Geobacillus caldoproteolyticus) ITGTSTVGVGRGVLGDQKNINTTYSTYYYLQDNTRGNGIFTYDAKYRTTLPGSLWADADNQFFASYDAPAVDAHYYAGVTYDYYKNVHNRLSYDGNNAAIRSSVHYSQGYNNAFWNGSQMVYGDGDGQTFIPLSGGIDVVAHELTHAVTDYTAGLTYQNESGAINEAISDIFGTLVEFYANKNPDWEIGEDVYTPGISGDSLRSMSDPAKYGDPDHYSKRYTGTQDNGGVHINSGIINKAAYLISQGGTHYGVSVVGIGRDKLGKIFYRALTQYLTPTSNFSQLRAAAVQSATDLYGSTSQEVASVKQAFDAVGVK	1.03
Q128I: single-substitution thermolysin variant (SEQ ID NO:3 numbering) (protein, listed as Geobacillus caldoproteolyticus) ITGTSTVGVGRGVLGDQKNINTTYSTYYYLQDNTRGNGIFTYDAKYRTTLPGSLWADADNQFFASYDAPAVDAHYYAGVTYDYYKNVHNRLSYDGNNAAIRSSVHYSQGYNNAFWNGSQMVYGDGDGITFIPLSGGIDVVAHELTHAVTDYTAGLIYQNESGAINEAISDIFGTLVEFYANKNPDWEIGEDVYTPGISGDSLRSMSDPAKYGDPDHYSKRYTGTQDNGGVHINSGIINKAAYLISQGGTHYGVSVVGIGRDKLGKIFYRALTQYLTPTSNFSQLRAAAVQSATDLYGSTSQEVASVKQAFDAVGVK	1.34
Y151W: single-substitution thermolysin variant (SEQ ID NO:3 numbering) (protein, listed as Geobacillus caldoproteolyticus) ITGTSTVGVGRGVLGDQKNINTTYSTYYYLQDNTRGNGIFTYDAKYRTTLPGSLWADADNQFFASYDAPAVDAHYYAGVTYDYYKNVHNRLSYDGNNAAIRSSVHYSQGYNNAFWNGSQMVYGDGDGQTFIPLSGGIDVVAHELTHAVTDWTAGLIYQNESGAINEAISDIFGTLVEFYANKNPDWEIGEDVYTPGISGDSLRSMSDPAKYGDPDHYSKRYTGTQDNGGVHINSGIINKAAYLISQGGTHYGVSVVGIGRDKLGKIFYRALTQYLTPTSNFSQLRAAAVQSATDLYGSTSQEVASVKQAFDAVGVK	1.22
